Tested on: adjuvant arthritis
Test: Rat adjuvant arthritis (AA) animal model
Assay type: in vivo, SD rats
Conditions: 4.0 mg/kg, intravenous in the tail once every five days from day 10, mean±SD
Peptide text beside a SMILES is read from it. * marks the point of attachment. X74 = O=C1C=CC(=O)N1c1cccc(CCCCCCCCCCC(=O)*)c1; X84 = O=C1C=CC(=O)N1c1ccccc1CCCCCCCCCCCCC(=O)*; X71 = O=C1C=CC(=O)N1c1cccc(CCCCCC(=O)*)c1; X61 = O=C1C=CC(=O)N1c1cccc(CCCC(=O)*)c1
# strict inequality: Joint swelling degree < 0.8 mm yields yes, everything else yields no

{"Molecule": "C[C@H](NC(=O)CNC(=O)[C@H](CCCNC(=N)N)NC(=O)CCCc1cccc(N2C(=O)C=CC2=O)c1)C(=O)N[C@@H](CC(=O)O)C(=O)N[C@@H](CCCNC(=N)N)C(=O)N[C@@H](C)C(=O)NCC(=O)NCC(=O)NCC(=O)NCC(=O)N[C@@H](CCCNC(=N)N)C(=O)NCC(=O)N[C@@H](CC(=O)O)C(=O)O [X27] (X61-RGADRAGGGGRGD-OH)", "Answer label": "yes"}
{"Molecule": "C[C@H](NC(=O)CNC(=O)[C@H](CCCNC(=N)N)NC(=O)CCCCCc1cccc(N2C(=O)C=CC2=O)c1)C(=O)N[C@@H](CC(=O)O)C(=O)N[C@@H](CCCNC(=N)N)C(=O)N[C@@H](C)C(=O)NCC(=O)NCC(=O)NCC(=O)NCC(=O)N[C@@H](CCCNC(=N)N)C(=O)NCC(=O)N[C@@H](CC(=O)O)C(=O)O [X29] (X71-RGADRAGGGGRGD-OH)", "Answer label": "no"}
{"Molecule": "C[C@H](NC(=O)CNC(=O)[C@H](CCCNC(=N)N)NC(=O)CCCCCCCCCCCCc1ccccc1N1C(=O)C=CC1=O)C(=O)N[C@@H](CC(=O)O)C(=O)N[C@@H](CCCNC(=N)N)C(=O)N[C@@H](C)C(=O)NCC(=O)NCC(=O)NCC(=O)NCC(=O)N[C@@H](CCCNC(=N)N)C(=O)NCC(=O)N[C@@H](CC(=O)O)C(=O)O [X24] (X84-RGADRAGGGGRGD-OH)", "Answer label": "yes"}

Req: Please indicate whether the reported Joint swelling degree of C[C@H](NC(=O)CNC(=O)[C@H](CCCNC(=N)N)NC(=O)CCCCCCCCCCc1cccc(N2C(=O)C=CC2=O)c1)C(=O)N[C@@H](CC(=O)O)C(=O)N[C@@H](CCCNC(=N)N)C(=O)N[C@@H](C)C(=O)NCC(=O)NCC(=O)NCC(=O)NCC(=O)N[C@@H](CCCNC(=N)N)C(=O)NCC(=O)N[C@@H](CC(=O)O)C(=O)O [X34] (X74-RGADRAGGGGRGD-OH) is strictly below 0.8 mm.
Resp: no
